test: qHTS Assay to Find Inhibitors of Chronic Active B-Cell Receptor Signaling: Hit Validation in Primary Screen; settings: ABC-DLBCL IkB-luc/CBR ratio luminescence, 4 h; series mostly up to 46.1 µM; note: nearly all actives have a fitted effect of over 75% in size
In all, about 1,200 compounds went through this assay and about 480 (40%) were called active. About 29% were inconclusive and are not listed. Calls come from the whole dose curve; as a rule, active = well fitted inhibition curve with a large enough effect; inconclusive = small, poorly fitted or top-dose-only effect; inactive = no such curve, though single readings can be large or run the other way. This is one part of the list.
Respond only with the outcome that fits, drawn from active, inactive

Reference set (5 entries):
compound="CCOc1cc(C(=O)N/N=C/C2CC=CCC2)cc(OCC)c1OCC (stereo unspecified)" assigned_class=inactive
compound=CCOc1ccc(S(=O)(=O)Nc2cc(OC)ccc2OC)cc1 assigned_class=active
compound=Cc1cnn(CCC(=O)NNC(=S)NCC(C)C)c1 assigned_class=inactive
compound=O=C1NC(=O)C(=C2CCCCCC2)S1 assigned_class=inactive
compound=CCOc1cc(C(=O)N/N=C/C(Br)=C/c2ccccc2)cc(OCC)c1OCC assigned_class=active

For O=C(N/N=C/C(Br)=C\c1ccccc1)c1n[nH]c2c1CCC2 , which call appears in the assay record?
active

I would be grateful if you could indicate the recorded call for COc1ccc(S(N)(=O)=O)cc1C(=O)OCCCOC(=O)c1cc(S(N)(=O)=O)ccc1OC .
inactive

Dear all, I need the recorded test outcome for COc1ccccc1-c1nnc(Nc2nc3c(OC)cccc3s2)o1 , thank you.
active

What call does the record list for CC(/C=N/NC(=O)c1n[nH]c2c1CCC2)=C\c1ccccc1 ?
active

For this compound, state the assay outcome: C(=N\Nc1nc2ccccc2s1)/c1ccccn1
active

Test call for this compound, please: CC1CCC2C(=O)N(c3ccc(C(=O)Oc4cccc5cccnc45)cc3)C(=O)C2C1 (stereo unspecified)
inactive

* * *

experiment: qHTS Assay to Find Inhibitors of Chronic Active B-Cell Receptor Signaling: Hit Validation in Primary Screen; conditions: ABC-DLBCL IkB-luc/CBR ratio luminescence, 4 h; series mostly up to 46.1 µM; note: nearly all actives have a fitted effect of over 75% in size
The campaign covered roughly 1,200 compounds. About 480 (40%) were called active. About 29% were inconclusive and are not listed. Calls follow the shape of the dose curve; as a rule, active = well fitted inhibition curve with a large enough effect; inconclusive = small, poorly fitted or top-dose-only effect; inactive = no such curve, though single readings can be large or run the other way. Some of the results follow.
Thanks in advance; please answer with one of these: Y for active, N for inactive

Consider the following illustrative entries.
compound=Cc1ccc(C)c(/C=N/NC(=S)NC(C)C)c1 assigned_class=N
compound=O=S1(=O)C=C(Sc2nc3cc(Cl)ccc3o2)c2ccccc21 assigned_class=Y
compound=C=CCNC(=S)NN=C1CCCCCCC1 assigned_class=N
compound=COC(=O)c1cnc(Oc2ccc(NC(=O)NC(=O)c3c(OC)cccc3OC)cc2)cc1C(F)(F)F assigned_class=Y
compound=Clc1ccc2nc(-c3ccccc3)nc(C(Cl)Cl)c2c1 assigned_class=Y

API: the following record is the query input.
Short answer needed: outcome of this test for OC(C#Cc1ccccn1)c1cccs1 (stereo unspecified) ?
N

* * *

Assay: qHTS Assay to Find Inhibitors of Chronic Active B-Cell Receptor Signaling: Hit Validation in Primary Screen; note: nearly all actives have a fitted effect of over 75% in size
Settings: ABC-DLBCL IkB-luc/CBR ratio luminescence, 4 h; series mostly up to 46.1 µM
Text: Diffuse large B-cell lymphoma (DLBCL) is the most common category of non-Hodgkin lymphoma, with ~20,000 new cases per year in the United States. DLBCL should be regarded as a collection of different neoplasms. […] Following the addition of doxycycline to induce expression of the luciferases, the green luminescence in control cultures rises only slowly because the CBG fusion partner IkappaBalpha is targeted by IKK activity for rapid degradation. […]
About 480 (40%) of roughly 1,200 compounds were called active. Inconclusive results (about 29%) are left out. Calls follow the shape of the dose curve; as a rule, active = well fitted inhibition curve with a large enough effect; inconclusive = small, poorly fitted or top-dose-only effect; inactive = no such curve, though single readings can be large or run the other way. Some of the results follow.
# output must be one of active, inactive

Example entries and their recorded answers appear below.
compound="CC(C)CCOc1ccc(CO[C@@H]2[C@H]3OC(C)(C)O[C@H]3O[C@@H]2C(O)CO)cc1 (stereo partly drawn)" assigned_class=inactive
compound=Cc1cc(Cl)ccc1OCCCC(=O)NO assigned_class=active
compound=Cc1cc(C(=O)OCC(=O)NCc2ccco2)c(C)n1-c1ccc(F)cc1 assigned_class=inactive
compound=CC1=Nc2cc(C(=O)NCc3ccco3)ccc2Sc2ccc(C)cc21 assigned_class=active
compound=COc1ccc(CN2C[C@H]3CCCN3c3cc(Br)ccc3S2(=O)=O)cc1 assigned_class=active

Could you please tell me the result logged for CCOC(=O)Cc1csc(NC(=S)NC(=O)c2ccccc2)n1 in this assay?
inactive

// return assay outcome for CCC1=Nc2cc(C(=O)NCc3cccnc3)ccc2Sc2ccc(C)cc21
active

Write down the call the test reported for this compound. Item: S=c1nc2ccccc2c2nc(-c3ccccc3Cl)[nH]n12
inactive

# outcome recorded in this test, key = CS(=O)(=O)C1=C(O)C(=O)N(c2ccccc2)C1c1ccccc1 (stereo not drawn)
inactive

Test call, this compound: CC1=Nc2cc(C(=O)NCC3CCCO3)ccc2Sc2ccc(C)cc21 (stereo not drawn)
active

What outcome does the record of this test show for Cc1ccc(S(=O)(=O)Nc2cccc3ncccc23)s1 ?
active

* * *

experiment: qHTS Assay to Find Inhibitors of Chronic Active B-Cell Receptor Signaling: Hit Validation in Primary Screen; conditions: ABC-DLBCL IkB-luc/CBR ratio luminescence, 4 h; series mostly up to 46.1 µM; note: nearly all actives have a fitted effect of over 75% in size
Out of some 1,200 compounds screened, about 480 (40%) were called active. Roughly 29% stayed inconclusive and do not appear here. The call rests on the fitted dose curve; in most records, active means well fitted inhibition curve with a large enough effect; inconclusive means small, poorly fitted or top-dose-only effect; inactive means no such curve, though single readings can be large or run the other way. This is one part of the list.
In this exercise, the only acceptable responses are T (active), F (inactive)

Observe how each entry below is paired with its result.
molecule="COc1ccc(C2CC(=O)Nc3cc(OC)c(OC)cc32)cc1Br (stereo unspecified)" assigned_class=T
molecule=Cc1ccccc1NCC(=O)c1ccc(Br)cc1 assigned_class=F
molecule=COC(=O)CCC(=O)NC(=S)Nc1sc(C)c(C)c1C(N)=O assigned_class=T

What did this assay record as the result for CCOc1cc(/C=C(/C#N)C(=O)Nc2ccc(O)cc2)cc(Br)c1O ?
T

Test call for this molecule, please: COc1cc2c(cc1OC)C(c1ccc(OC)c(OC)c1OC)CC(=O)N2 (stereo unspecified)
T

Dear colleague, could you share the recorded outcome for CCCCC(=O)NC(=S)Nc1nnn(CCC)n1 when you have a moment?
F

* * *

test: qHTS Assay to Find Inhibitors of Chronic Active B-Cell Receptor Signaling: Hit Validation in Primary Screen; conditions: ABC-DLBCL IkB-luc/CBR ratio luminescence, 4 h; series mostly up to 46.1 µM; note: nearly all actives have a fitted effect of over 75% in size
In all, about 1,200 compounds went through this assay and about 480 (40%) were called active. Roughly 29% stayed inconclusive and do not appear here. The call rests on the fitted dose curve; in most records, active means well fitted inhibition curve with a large enough effect; inconclusive means small, poorly fitted or top-dose-only effect; inactive means no such curve, though single readings can be large or run the other way. The list shows a part of the results.
Permitted responses: 1.0 for active, 0.0 for inactive

compound=COc1cc(OC)cc(C(=O)N[C@H](C(=O)Nc2nc3ccccc3[nH]2)C(C)C)c1 assigned_class=1.0

Could you check what this test reported for Cc1ccc2[nH]c(C(=O)NN=C3CCCCC3)c(-c3ccccc3)c2c1 ?
0.0

// param item: O=C1N/C(=N/N=C/c2ccccc2O)SC1Cc1ccc(F)cc1 (stereo not given) ; yields the recorded call
1.0

Which outcome was entered for the compound Cc1ccccc1OCCc1c(C)[nH]c(=S)[nH]c1=O in this test?
1.0

I'd appreciate the recorded outcome for NNC(=O)c1[nH]c2ccc(Cl)cc2c1-c1ccccc1 from this test.
0.0

Could you kindly confirm the outcome this assay logged for COc1ccccc1OCCCN1C(=O)C(=O)c2cccc(C)c21 ?
0.0

# lookup: test call for COc1ccc(/C=N/NC(=O)c2[nH]c3ccc(Br)cc3c2-c2ccccc2)c(C(=O)O)c1OC
0.0

Assay result, entry N#CC(C(=S)Nc1ccccc1)c1nc2ccccc2[nH]1 (stereo not given) — outcome?
0.0

Which outcome did this test record for the compound Cc1ccc(C)c(-n2c3nc(=O)[nH]c(=O)c-3cc3cc([N+](=O)[O-])ccc32)c1 ?
0.0

Test call for this compound, please: Cc1cc(C)cc(NS(=O)(=O)c2ccc(-c3cnc(C4CC4)o3)cc2)c1
1.0

* * *

assay: qHTS Assay to Find Inhibitors of Chronic Active B-Cell Receptor Signaling: Hit Validation in Primary Screen; settings: ABC-DLBCL IkB-luc/CBR ratio luminescence, 4 h; series mostly up to 46.1 µM; note: nearly all actives have a fitted effect of over 75% in size
In all, about 1,200 compounds went through this assay and about 480 (40%) were called active. About 29% were inconclusive and are not listed. Calls follow the shape of the dose curve; as a rule, active = well fitted inhibition curve with a large enough effect; inconclusive = small, poorly fitted or top-dose-only effect; inactive = no such curve, though single readings can be large or run the other way. Some of the results follow.
Please answer using one outcome listed in Y for active, N for inactive

These solved cases illustrate the format of a correct answer.
compound_structure_string=ClC(Cl)(Cl)c1nc2ccccc2n2nncc12 assigned_class=Y
compound_structure_string=CCOc1ccc(S(=O)(=O)N(CC(=O)NN=C2CCN(C)CC2)c2ccc(C)cc2)cc1 assigned_class=N
compound_structure_string=CCOc1ccc(N(CC(=O)Nc2ccccc2C)S(=O)(=O)c2c(C)noc2C)cc1 assigned_class=Y
compound_structure_string=CNC(=S)N/N=C/c1ccco1 assigned_class=N

Status in this test for Cc1c(CCC(=O)N2CCC(C(=O)O)(c3ccccc3)CC2)c(=O)oc2cc3oc4c(c3cc12)CCCC4 ?
N

Test call for this molecule, please: CCCCNC(=S)NNC(=O)CCn1nc(C)c(Br)c1C
N

Record request — test call for CCOc1ccc(N(CC(=O)Nc2ccccc2OC)S(=O)(=O)c2ccccc2)cc1
Y
